experimental-system: T1, human TIGIT-Fc (human, UniProt Q495A1 22-141, limits assumed)
T1 construct: not shown: Fc; not described
T1 sequence (looked up): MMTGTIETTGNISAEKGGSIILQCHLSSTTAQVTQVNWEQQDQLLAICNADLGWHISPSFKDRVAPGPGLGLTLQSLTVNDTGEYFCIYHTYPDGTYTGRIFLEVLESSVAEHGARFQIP
measurement-protocol: CD155 competition ELISA, single point; note: test concentration or dose not given here
Here the recorded OD (450 nm) is given for each entry.
metric-name: OD (450 nm) (OD)

[[record]]
binder = "TIGIT-SC67 (Fc fusion, VHH-Fc) VHH: EVQLVESGGGLVQPGGSLRLSCAASGFTFDRSWMGWFRQAPGKEREWVSTIYSNGTPAYADSVKGRFTISADNSKNTAYLQMNSLKPEDTAVYYCARRGLPSYSYGMDVWGQGTLVTVSS"
metric_name = "OD (450 nm)"
measurement_unit = "OD"
val = 0.149

[[record]]
binder = "TIGIT-SC207 (Fc fusion, VHH-Fc) VHH: EVQLVESGGGLVQPGGSLRLSCAASGFAFSSYVMGWFRQAPGKEREFVAAIWRSGTLKAYADSVKGRFTISADNSKNTEYLQMNSLKPEDTAVYYCARDDYGDTRRYFQHWGQGTLVTVSS"
metric_name = "OD (450 nm)"
measurement_unit = "OD"
val = 0.504

[[record]]
binder = "TIGIT-SC195 (Fc fusion) VHH: EVQLVESGGGLVQPGGSLRLSCAASGFAFSSDWMGWFRQAPGKEREWVASVLRGGYTWYADSVKGRFTISADNSKNTAYLQMNSLKPEDTAVYYCARGEGFDYWGQGTLVTVSS"
metric_name = "OD (450 nm)"
measurement_unit = "OD"
val = 0.426

[[record]]
binder = "TIGIT-SC63 (Fc fusion, VHH-Fc) VHH: EVQLVESGGGLVQPGGSLRLSCAASGRAIGSYGMGWFRQAPGKEREFVATISVSGVYTYYADSVKGRFTISADNSKNTAYLQMNSLKPEDTAVYYCARATPGGVVPWGQGTLVTVSS"
metric_name = "OD (450 nm)"
measurement_unit = "OD"
val = 0.0781

[[record]]
binder = "TIGIT-SC20 (Fc fusion, VHH-Fc) VHH: EVQLVESGGGLVQPGGSLRLSCAASGNTFSGGFMGWFRQAPGKEREWVASVLRGGYTWYADSVKGRFTISADNSKNTAYLQMNSLKPEDTAVYYCATPRGYWGQGTLVTVSS"
metric_name = "OD (450 nm)"
measurement_unit = "OD"
val = 0.726

[[record]]
binder = "TIGIT-SC82 (Fc fusion, VHH-Fc) VHH: EVQLVESGGGLVQPGGSLRLSCAASGSMSSNYAMGWFRQAPGKEREFVAAIDWSGGNTYYADSVKGRFTISADNSKNTAYLQMNSLKPEDTAVYYCAKWFYYGSGLYTLDVWGQGTLVTVSS"
metric_name = "OD (450 nm)"
measurement_unit = "OD"
val = 0.25

[[record]]
binder = "TIGIT-SC28 (Fc fusion, VHH-Fc) VHH: EVQLVESGGGLVQPGGSLRLSCAASGRTFSTDAMGWFRQAPGKEREFVATINWKDGFTYYADSVKGRFTISADNSKNTAYLQMNSLKPEDTAVYYCAGVGHDYGDYLFDYWGQGTLVTVSS"
metric_name = "OD (450 nm)"
measurement_unit = "OD"
val = 0.539

[[record]]
binder = "TIGIT-SC199 (Fc fusion, VHH-Fc) VHH: EVQLVESGGGLVQPGGSLRLSCAASGFSSAQYAMGWFRQAPGKERELVASIDSEGRTNYADSVKGRFTISADNSKNTAYLQMNSLKPEDTAVYYCTRDGGFDPWGQGTLVTVSS"
metric_name = "OD (450 nm)"
measurement_unit = "OD"
val = 0.503

[[record]]
binder = "TIGIT-SC145 (Fc fusion, VHH-Fc) VHH: EVQLVESGGGLVQPGGSLRLSCAASGNTFSGGFTLGYYVMGWFRQAPGKEREFVAAISRSGTLKAYADGVKGRFTISADNSKNTAYLQMNSLKPEDTAVYYCARVEAYGDPLGYWGQGTLVTVSS"
metric_name = "OD (450 nm)"
measurement_unit = "OD"
val = 0.432

[[record]]
binder = "TIGIT-SC140 (Fc fusion, VHH-Fc) VHH: EVQLVESGGGLVQPGGSLRLSCAASGNTFSGGFTFDRSWMGWFRQAPGKEREWVASVLRGGYTWYADSVKGRFTISADNSKNTAYLQMNSLKPEDTAVYYCAGDRYYDFWSGPNSGDYWGQGTLVTVSS"
metric_name = "OD (450 nm)"
measurement_unit = "OD"
val = 0.708

[[record]]
binder = "TIGIT-SC208 (Fc fusion, VHH-Fc) VHH: EVQLVESGGGLVQPGGSLRLSCAASGFLFDSYVMGWFRQAPGKEREFVAAIWRSGTLKAYADSVKGRFTISADNSKNTEYLQMNSLKPEDTAVYYCARDDYGDTRRYFQHWGQGTLVTVSS"
metric_name = "OD (450 nm)"
measurement_unit = "OD"
val = 0.544

[[record]]
binder = "TIGIT-SC2 (Fc fusion, VHH-Fc) VHH: EVQLVESGGGLVQPGGSLRLSCAASGFTLSSNWMGWFRQAPGKEREMVAAIDWSGGSALYADSVKGRFTISADNSKNTAYLQMNSLKPEDTAVYYCAKDALSNSARFDHWGQGTLVTVSS"
metric_name = "OD (450 nm)"
measurement_unit = "OD"
val = 0.407

[[record]]
binder = "TIGIT-SC27 (Fc fusion, VHH-Fc) VHH: EVQLVESGGGLVQPGGSLRLSCAASGLTFSNYVMGWFRQAPGKEREVVAGILSDGRELYADSVKGRFTISADNSKNTAYLQMNSLKPEDTAVYYCARDVFGEGHWGQGTLVTVSS"
metric_name = "OD (450 nm)"
measurement_unit = "OD"
val = 0.505

[[record]]
binder = "TIGIT-SC51 (Fc fusion, VHH-Fc) VHH: EVQLVESGGGLVQPGGSLRLSCAASGRTEANYAMGWFRQAPGKEREFVAAISWDGGATAYADSVKGRFTISADNSKNTAYLQMNSLKPEDTAVYYCGDYEGHWGQGTLVTVSS"
metric_name = "OD (450 nm)"
measurement_unit = "OD"
val = 0.129

[[record]]
binder = "TIGIT-SC65 (Fc fusion, VHH-Fc) VHH: EVQLVESGGGLVQPGGSLRLSCAASGFTFGNYDMGWFRQAPGKEREFVAAITGSGRSTYYADSVKGRFTISADNSKNTAYLQMNSLKPEDTAVYYCARGRIAASGTKVYWYFDLWGQGTLVTVSS"
metric_name = "OD (450 nm)"
measurement_unit = "OD"
val = 0.0846

